Target: hErbB3.mmh (soluble monomeric human ErbB3 extracellular domain with C-terminal myc-myc-hexahistidine tag) (human, UniProt P21860 20-642)
Sequence (P21860 other isoform, or with tags, fused parts or gaps): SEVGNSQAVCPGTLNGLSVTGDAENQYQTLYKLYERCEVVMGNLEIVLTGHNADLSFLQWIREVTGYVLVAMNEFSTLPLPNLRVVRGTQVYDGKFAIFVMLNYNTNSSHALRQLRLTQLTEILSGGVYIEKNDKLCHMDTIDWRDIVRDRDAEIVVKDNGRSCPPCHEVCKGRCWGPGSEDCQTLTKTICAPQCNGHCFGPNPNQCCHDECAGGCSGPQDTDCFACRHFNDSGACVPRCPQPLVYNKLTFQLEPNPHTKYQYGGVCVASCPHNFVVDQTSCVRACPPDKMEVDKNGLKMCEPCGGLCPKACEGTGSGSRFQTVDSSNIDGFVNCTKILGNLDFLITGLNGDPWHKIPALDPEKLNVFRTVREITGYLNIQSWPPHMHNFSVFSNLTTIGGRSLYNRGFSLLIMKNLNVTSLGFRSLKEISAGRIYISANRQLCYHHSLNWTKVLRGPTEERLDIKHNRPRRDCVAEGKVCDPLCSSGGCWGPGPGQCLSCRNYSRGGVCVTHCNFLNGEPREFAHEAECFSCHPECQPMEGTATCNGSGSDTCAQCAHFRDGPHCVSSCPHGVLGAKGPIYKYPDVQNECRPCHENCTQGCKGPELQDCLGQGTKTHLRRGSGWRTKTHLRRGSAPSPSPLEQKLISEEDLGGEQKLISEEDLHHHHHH
Assay: SPR (Biacore), 25 C, mAb capture format
recorded.metric: koff (s⁻¹)
Just the number in s⁻¹, nothing appended.

As a guide, the following entries are already answered.
>  <binder>
H2M1827N (antibody, V domains shown, Hybridoma chimeric antibody: human variable domains, mouse IgG2 Fc (H2M prefix)) VH: EVQLVESGGGVVRPGGSLRLSCAASGFTFDDYGMSWVRQAPGKGLECVSGISWNGGNTDYADSVKGRFTISRDNAKNSLYLQMNSLRAEDTALYHCARDGGDWDYFDLWGRGTLVTVSS VL: EILMTQSPATLSVSPGERATLSCRASQSVSSNLAWYQQKPGQAPRLLIYGASTRATGIPARFSGSGSGTEFTLTISSLQSEDFAIYYCQEYNDWPLTFGGGTKVEIK

>  <koff (s⁻¹)>
8.96e-05

$$$$
>  <binder>
H2M1829N (antibody, V domains shown, Hybridoma chimeric antibody: human variable domains, mouse IgG2 Fc (H2M prefix)) VH: EVQLVESGGGVVRPGGSLRLSCVASGFTFDDYGMSWVRQAPGKGLECVSGINWNGGSTDYADSVKGRFTISRDNAKNSLYLQMNSLRAEDTALYHCARDGGDWDYFDLWGRGTLVTVSS VL: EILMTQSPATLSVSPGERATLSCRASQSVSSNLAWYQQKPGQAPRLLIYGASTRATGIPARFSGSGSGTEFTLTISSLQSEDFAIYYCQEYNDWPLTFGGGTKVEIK

>  <koff (s⁻¹)>
6.46e-05

$$$$

So for H2M1934N (antibody, V domains shown, Hybridoma chimeric antibody: human variable domains, mouse IgG2 Fc (H2M prefix)) VH: EVQLVQSGGGLVKPGGSLRLSCAASGFTFSNFNMNWVRQAPGKGLEWVSFISSLSTYTYYADSVKGRFTISRDNAKNSLYLQMNSLRAEDTAVYYCARDDGDHDWFDPWGQGTLVTVSS VL: EIVLTQSPDTLSLSPGERATLSCRASQSVSSNYLAWYQQKPGQAPRLLIYSASNRATGIPDRFSGSGSGTDFTLTISRLEPEDFAVYYCQQYDSSYTFGQGTKLEIK , the logged koff turned out to be 7.35e-05

All values here come from patent US20140072563A1.
